# experimental-target: Voltage-gated potassium channel subunit beta-2 (Rattus norvegicus)
# method-summary: inhibitors of rat Kvbeta2 reductase activity – biochemical, NADPH fluorescence, primary screen (AID 622);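 further: slope of raw intensity against log time taken from 70 to 1610 s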
# condition-details: recombinant KvBeta, 4-cyanobenzaldehyde reduction, at 10 µM, active compounds read high
property: fluorescence slope
Provide a numeric answer; units are not to be included.

Record excerpt, results attached:
1. COc1ccc(S(=O)(=O)NCC(=O)N(CC(=O)NCC2CCCO2)c2ccccc2C)cc1 (centres undefined) ... -0.399
2. CC(=O)N1CCN(S(=O)(=O)c2ccc(S(=O)(=O)NCC(C)C)cc2)CC1 ... -0.399
3. O=C(Nc1ccc(N2CCCC2)cc1)c1ccc(Br)o1 ... -0.398

Turning to the following compound.
Which fluorescence slope value is on record for CCCn1c(SCC(=O)NC(=O)NCc2ccco2)n[nH]c1=O ?
-0.39

###

Readings of NADPH fluorescence slope for the listed compounds
# experimental-target: Voltage-gated potassium channel subunit beta-2 (Rattus norvegicus) (UniProt P62483)
# Sequence (P62483 whole entry, looked up): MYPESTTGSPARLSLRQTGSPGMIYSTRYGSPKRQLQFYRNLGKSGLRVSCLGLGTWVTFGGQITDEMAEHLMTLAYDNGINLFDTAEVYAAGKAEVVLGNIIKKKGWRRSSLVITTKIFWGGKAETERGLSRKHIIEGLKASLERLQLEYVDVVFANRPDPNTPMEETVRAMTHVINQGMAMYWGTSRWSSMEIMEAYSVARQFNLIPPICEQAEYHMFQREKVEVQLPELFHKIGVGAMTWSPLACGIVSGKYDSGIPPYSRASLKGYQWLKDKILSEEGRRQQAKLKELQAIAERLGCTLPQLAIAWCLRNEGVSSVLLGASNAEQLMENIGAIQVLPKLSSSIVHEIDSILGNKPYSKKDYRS
# method-summary: enhancers of rat Kvbeta2 NADPH turnover – biochemical, NADPH fluorescence, primary screen (AID 623);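 further: fluorescence intensity change per second fitted from 20 to 320 s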
# condition-details: Recombinant KvBeta, NADPH fluorescence decrease slope, 10 min; at 10 µM; active compounds read low
Provide a numeric answer; units are not to be included.

Record excerpt, results attached:
1. COC(=O)C1=C(C)NC(=O)C1(NC(=O)CN1CCCC1=O)C(F)(F)F (centres undefined) ... -7.2e-05
2. CCOC(=O)c1cc(CC)sc1NC(=O)COC ... -7.5e-06
3. COc1ccccc1-c1cc2nc(C)c(CCC(=O)NCc3ccco3)c(C)n2n1 ... -4.5e-05

Turning to the following compound.
Which NADPH fluorescence slope value is on record for COC(=O)c1ccc(COC(=O)c2c(C)nn(Cc3ccccc3Cl)c2Cl)o1 ?
1.7e-05

###

# method-summary: endothelial E-selectin expression blockers – imaging, HUVEC, immunofluorescence, MLSMR starter and 10KST1 sets, primary screen (AID 487);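 further: signal is fraction of cell area covered by stained E-selectin grains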
# condition-details: HUVEC TNFalpha-induced E-selectin immunofluorescence imaging, at 2 µM; active compounds read high
property: inhibition (%)
Value expressed in %; do not type the unit.

Record excerpt, results attached:
1) COc1ccc(-c2nnc(SC(C)C(=O)Nc3nccs3)n2-c2ccccc2)cc1OC (stereo not drawn) ... -36.4
2) Cc1ccc(-c2[nH]nc3c2C(c2ccoc2)C(C#N)=C(N)O3)cc1C (stereo not drawn) ... -111
3) c1ccc(CCc2nn3c(Cn4cnc5ccccc54)nnc3s2)cc1 ... -29.5
4) CN1CCN(C(=O)C2(NC(=O)Nc3cccc(F)c3)CCCCC2)CC1 ... -39.7

Which inhibition value is on record for CCCNC(=O)N1CCN(S(=O)(=O)c2ccc(C)c(C)c2)CC1 ?
-28.8

Queued: O=C(Nc1ccncc1)c1cc2ccccc2o1
-106

###

# method-summary: TLR3 IRF3 reporter activation blockers – cell-based, poly I:C stimulus, luciferase, 10K MLSCN set, primary screen (AID 602277)
# condition-details: HEK293-TLR3 RL24 IRF3 luciferase reporter, at 10 µM, active compounds read high
Activity calls are given as the source filed them.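 Rule for the calls: active = inhibition of the reporter signal at or above 50%; inactive = inhibition below 50%.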
property: inhibition

Record excerpt, results attached:
1. N#Cc1nc(COc2ccccc2)oc1NCCN1CCOCC1 ... 2.82% (inactive)
2. COC(=O)c1ccccc1NC(=O)c1noc2c1CCC2 ... 22.8% (inactive)
3. CCOC(=O)c1sc2nc(SCC#N)n(CCCN3CCCC3=O)c(=O)c2c1C ... -8.03% (inactive)
4. Cc1ccc(C)c(-c2nc3ccc(N)cc3[nH]2)c1 ... -9.14% (inactive)
5. COc1cc(C(=O)NCC(=O)OCC(=O)c2ccc[nH]2)cc(OC)c1OC ... 16.7% (inactive)
6. COC(=O)c1cn(C(=O)OC)c2ccccc12 ... 10.5% (inactive)
7. CCOC(=O)c1oc2c(CN3CCN(C)CC3)c(O)ccc2c(=O)c1-c1ccccc1OC ... 20.2% (inactive)
8. Cc1ccc(-c2nnc3c4ccccc4c(C)nn23)cc1S(=O)(=O)N1CCN(C)CC1 ... 30.7% (inactive)
9. c1ccc(-c2nn3nnnc3c3ccccc23)cc1 ... 20.5% (inactive)
10. CCN(C(=O)c1cc2cc3ccc(C)cc3nc2o1)c1ccc(OC)cc1 ... -79.8% (inactive)

Which inhibition value is on record for Cc1cc(OCC(=O)N2CCOCC2)cc2oc(=O)c3ccccc3c12 ?
-8.03% (inactive)

Queued: Cc1csc2nc3ccccc3c(=O)n12
-6.37% (inactive)

Queued: COC(=O)c1ccc(COc2ccc(C3C4=C(CCCC4=O)Nc4onc(C)c43)cc2)cc1 (configuration not stated)
-23% (inactive)

Data origin: PubChem BioAssay
